The values you see were collected from patent EP2489663A1.

# ASSAY TARGET: human full-length Syk (Homo sapiens, UniProt P43405)
# Construct: Recombinant human full-length Syk was supplied by Millipore; purchased Millipore
# METHOD SUMMARY: Syk Enzyme assay - Radioactive filtration kinase assay
# Assay type: biochemical
# CONDITION SET: recombinant human full-length Syk 1 nM, poly-GT substrate, [γ-33P] ATP, 40 min room temperature
pIC50: −log10 of the molar value.
MEASURED PARAMETER: pIC50

Below, 6 molecules whose answers are already recorded.
>>> print(df.to_string())
                                   molecule  measured_parameter  observed_result
0  Cc1ccc2c(Nc3cnccn3)nn(-c3ccnc(N4C[C@@H]5C[C@H]4CN5)c3)c2c1 [Example 55]               pIC50             8.22
1  COc1ccc2c(Nc3cnccn3)nn(-c3ccnc(N4CCCNCC4)c3)c2c1 [Example 62]               pIC50             7.77
2  c1cnc(Nc2nn(-c3ccnc(N4C[C@@H]5C[C@H]4CN5)c3)c3cc(C4CC4)ccc23)cn1 [Example 58]               pIC50             8.40
3  Cc1nc(N2C[C@@H]3C[C@H]2CN3)cc(-n2nc(Nc3cnccn3)c3ccccc32)n1 [Example 42]               pIC50             8.05
4  COCCOc1ccc2c(Nc3cnccn3)nn(-c3ccnc(N4C[C@@H]5C[C@H]4CN5)c3)c2c1 [Example 61]               pIC50             7.92
5  COc1ccc2c(Nc3cnccn3)nn(-c3ccnc(N4CCNC[C@@H]4C)c3)c2c1 [Example 76]               pIC50             7.96

P: O=C(c1ccc2c(Nc3cnccn3)nn(-c3ccnc(N4C[C@@H]5C[C@H]4CN5)c3)c2c1)N1CCCCC1 [Example 21]
Q: Cc1ccnc(Nc2nn(-c3ccnc(N4C[C@@H]5C[C@H]4CN5)c3)c3cc(O)ccc23)c1 [Example 88]
R: Nc1ccc2c(Nc3cnccn3)nn(-c3ccnc(N4C[C@@H]5C[C@H]4CN5)c3)c2c1 [Example 12]
Number of molecules to sort: 3. Sort criterion: pIC50, ascending. Put the labels in the requested order and write them down. P, Q, R
(P: 7.98, Q: 8.30, R: 8.60)

====

# ASSAY TARGET: human full-length Syk (Homo sapiens, UniProt P43405)
# Construct: Recombinant human full-length Syk was supplied by Millipore
# METHOD SUMMARY: Syk Enzyme assay - Radioactive filtration kinase assay
# CONDITION SET: recombinant human full-length Syk 1 nM, poly-GT substrate, [γ-33P] ATP, 40 min room temperature
pIC50: −log10 of the molar value.
MEASURED PARAMETER: pIC50

For orientation, consider the following solved cases.
                                smiles_code  measured_parameter  observed_result
0  COc1ccc2c(Nc3cnccn3)nn(-c3cc(N4C[C@@H]5C[C@H]4CN5)ncn3)c2c1               pIC50             7.82
1  C[C@H]1CNCCN1c1cc(-n2nc(Nc3cnccn3)c3ccccc32)ccn1               pIC50             7.96
2  COc1ccc2c(Nc3cnccn3)nn(-c3cccc(N4C[C@@H]5C[C@H]4CN5)c3)c2c1               pIC50             7.80
3  O=S(=O)(Nc1ccc2c(Nc3cnccn3)nn(-c3ccnc(N4C[C@@H]5C[C@H]4CN5)c3)c2c1)c1ccccc1               pIC50             7.70

A: COc1ccc2c(Nc3cnccn3)nn(-c3ccnc(N4C[C@@H]5C[C@H]4CN5)c3)c2c1
B: Oc1ccc2c(Nc3cnccn3)nn(-c3ccnc(N4CCCNCC4)c3)c2c1
C: Cc1ccc2c(Nc3cnccn3)nn(-c3cncc(N4C[C@@H]5C[C@H]4CN5)c3)c2c1
Rank the 3 molecules: largest pIC50 first, smallest last. # list labels per requested ordering C, A, B
